Test system: SK-MEL-2
experimental_details: NCI tumour cell line growth inhibition, 48 h
Activity calls are given as the source filed them. Rule as the data show it: active = GI50 up to about 1.1 µM and inactive = higher.
Classes used: t = active, f = inactive

| compound | subject_of_test | class_assignment |
| --- | --- | --- |
| COc1ccc(/C(Cl)=C(\C=O)c2cc(OC)c(OC)c(OC)c2)cc1OC | SK-MEL-2 | f |
| COC1/C(=C\C(C)=O)c2ccccc2N1C(C)=O (centres undefined) | SK-MEL-2 | f |
| O=C1Sc2ccc(Br)cc2C(=O)Sc2ccccc21 | SK-MEL-2 | f |
| COc1ccc(CNc2nc(NCc3ccc(OC)cc3)nc(NC(C)C)n2)cc1 | SK-MEL-2 | f |
| COc1ccc(CNc2nc(NCc3ccc(OC)cc3)nc(NC3CCCCC3)n2)cc1 | SK-MEL-2 | f |
| Oc1c(Br)cc(/C=C/c2cccc(/C=C/c3cc(Br)c(O)c(Br)c3)n2)cc1Br | SK-MEL-2 | f |
| COc1ccc2c(c1)c1c(n2CCN2CCCCC2)-c2cccc(OC)c2CC1 | SK-MEL-2 | f |
| CC(=O)Oc1c2c(c(O)c3ccccc13)C(n1cnc3c(ncn3C3OC(CO)C4OC(C)(C)OC43)c1=N)CCC2 (centres undefined) | SK-MEL-2 | f |
| CCC(=O)c1cn(C)c(=O)c2ccccc12 | SK-MEL-2 | f |
| O=C1OC(C2Cc3ccc4c(c3C2=O)CCC4)c2ccccc21 (centres undefined) | SK-MEL-2 | f |
| Cc1cc(C)c(OC(=O)Nc2cccc3ccccc23)c(-c2ccccc2)c1 | SK-MEL-2 | f |
| Cc1ccc(-c2cc(=O)c3cc(C)c(C)c(C(=O)O)c3o2)cc1[N+](=O)[O-] | SK-MEL-2 | f |
| COc1ccc(NC(=S)NNC(=O)c2nsc3ccccc23)cc1 | SK-MEL-2 | f |
| c1ccc2[nH]c3nc4ccccc4c-3cc2c1 | SK-MEL-2 | t |
| O=C(Nc1cccc([N+](=O)[O-])c1)C(=O)C(C(=O)c1ccccc1-c1ccccc1)C1OC(=O)c2ccccc21 (centres undefined) | SK-MEL-2 | f |
| Clc1ccc(CCNC2(c3cc4ccccc4s3)CCCCC2)cc1Cl | SK-MEL-2 | f |
| COc1ccc(C[C@H](N)C(=O)N2C[C@@H](CO)C[C@@H](n3cnc4c(N(C)C)ncnc43)C2)cc1 | SK-MEL-2 | f |
| CCC/N=C/c1c(O)c(O)c(C(C)C)c2cc(C)c(-c3c(C)cc4c(C(C)C)c(O)c(O)c(/C=N/CCC)c4c3O)c(O)c12 | SK-MEL-2 | f |
| O=C(NCCCCCCNC(=O)n1cc(F)c(=O)[nH]c1=O)NCCCOCCOCCOCCOCCOCCOCCOCCOCCOCCOCCOCCOCCOCCOCCOCCOCCOCCOCCOCCOCCOCCCNC(=O)C(O)C(O)C(O)C(O)CO (centres undefined) | SK-MEL-2 | f |

Sourced from ChEMBL document CHEMBL1201862
